- Target Desc: NACHT, LRR and PYD domains-containing protein 3 (Homo sapiens, UniProt Q96P20)
- Sequence (Q96P20 whole entry, the tested form may be a part): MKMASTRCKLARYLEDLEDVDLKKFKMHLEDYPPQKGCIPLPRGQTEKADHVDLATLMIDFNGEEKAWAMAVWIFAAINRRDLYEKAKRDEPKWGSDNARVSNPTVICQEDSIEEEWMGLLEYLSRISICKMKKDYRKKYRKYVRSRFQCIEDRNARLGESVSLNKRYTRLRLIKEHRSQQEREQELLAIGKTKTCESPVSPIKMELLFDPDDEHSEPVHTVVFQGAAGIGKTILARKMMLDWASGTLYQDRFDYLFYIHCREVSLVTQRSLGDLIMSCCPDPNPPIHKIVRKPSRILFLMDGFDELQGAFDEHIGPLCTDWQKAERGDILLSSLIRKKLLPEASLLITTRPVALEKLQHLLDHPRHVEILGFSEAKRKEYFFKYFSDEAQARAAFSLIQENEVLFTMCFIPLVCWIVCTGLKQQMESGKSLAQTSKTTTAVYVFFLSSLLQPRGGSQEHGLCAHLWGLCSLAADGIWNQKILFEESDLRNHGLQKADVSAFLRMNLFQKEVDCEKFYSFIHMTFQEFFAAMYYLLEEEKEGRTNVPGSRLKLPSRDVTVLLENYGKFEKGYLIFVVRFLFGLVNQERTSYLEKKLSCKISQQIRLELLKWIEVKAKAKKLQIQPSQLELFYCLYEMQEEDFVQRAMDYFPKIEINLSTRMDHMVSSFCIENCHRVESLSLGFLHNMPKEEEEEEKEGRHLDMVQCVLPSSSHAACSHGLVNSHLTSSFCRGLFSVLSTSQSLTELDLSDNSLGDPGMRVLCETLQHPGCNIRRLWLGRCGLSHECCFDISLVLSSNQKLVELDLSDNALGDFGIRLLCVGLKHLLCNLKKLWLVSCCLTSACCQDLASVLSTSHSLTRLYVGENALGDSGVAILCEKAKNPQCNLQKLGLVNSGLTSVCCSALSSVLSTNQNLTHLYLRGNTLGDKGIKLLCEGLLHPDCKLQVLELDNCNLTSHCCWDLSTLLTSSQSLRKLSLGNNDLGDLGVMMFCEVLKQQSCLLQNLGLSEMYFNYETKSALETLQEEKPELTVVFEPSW
- Test Description: Inhibition of NLRP3 in human PBMC cells assessed as reduction in IL-1beta production preincubated for 30 mins followed by LPS addition measured after 6 hrs
As shown below, each of these compounds has a reported pEC50 value.
Please report pEC50 as the negative decimal logarithm of the molar concentration, giving only the number.

{"Compound": "CC(C)c1nn(CC(=O)Nc2ccc3nncn3n2)c(=O)cc1N1CC2CC2C1 (centres undefined)", "pEC50": 7.05}

Please examine the following record next.
Q: What pEC50 value was documented for this compound, COC(=O)C12CC(NC(=O)Cn3nc(C(C)C)c(OCC(C)C)cc3=O)(C1)C2 ?
Result: 8.00
